Reference source: ChEMBL document CHEMBL2321852

Recorded measurements of solubility kinetic at 2 h, one per entry
Test: Solubility of the compound in phosphate buffered saline at pH 2.0 after 2 hrs by turbidimetric analysis
Format: physicochemical

- COMPOUND: "Cc1ccc(C(SC[C@H](N)C(=O)O)(c2ccccc2)c2ccccc2)cc1C"
  solubility kinetic at 2 h: "65 µM"
- COMPOUND: "COc1ccc(C(SC[C@H](N)C(=O)O)(c2ccccc2)c2ccccc2)cc1"
  solubility kinetic at 2 h: "> 100 µM"
- COMPOUND: "Cc1ccc(C(CCC(N)C(=O)O)(c2ccccc2)c2ccccc2)cc1C (racemic)"
  solubility kinetic at 2 h: "> 100 µM"
- COMPOUND: "Cc1ccc(C(=O)N(CCCN)[C@@H](c2oc3cc(Cl)ccc3c(=O)c2Cc2ccccc2)C(C)C)cc1"
  solubility kinetic at 2 h: "> 100 µM"
- COMPOUND: "CCc1cc(C(SC[C@H](N)C(=O)O)(c2ccccc2)c2ccccc2)ccc1C"
  solubility kinetic at 2 h: "> 100 µM"
- COMPOUND: "COc1ccc(C(CCCN)(c2ccccc2)c2ccccc2)cc1"
  solubility kinetic at 2 h: "> 100 µM"
